- Assay Procedure: yeast display, Sf9 membrane polyspecificity reagent, FACS + sequencing; frameworks hold sequencing errors
Measured Attribute: polyreactivity (PSR sort gate)

INSERT INTO measurements (seq, recorded_measurement) VALUES
  ('QVQLVESGGGLVQAGGSLRLSCAASGFIFSSNAMGWYRQAPGKERELVATISSDGSTNYADSVKGRFTISRDNAKNTVYLQMNSLKPEDTAVYYCAADLSLTIGTWTVLDTKYDYWGQGTQVTVSS', 'low polyreactivity'),
  ('PVQLVESGGGLDQAGGSLRLTCAASGSIFYYNAKGWYRQSPGKERELVAAISSDGGTYYADSVKARFTISRDNAKKTVYLQMNSLKPEDTAVYYCAASQPSTYDYWGQGTQLTVSS', 'high polyreactivity'),
  ('QVQHVESGGGLVQAGGGLRLSCAASGRIFRQNTMGWYRHAAGKEWELVASISLSAGSTFYADSVKGRFTISRDNAKNTVYLQMNSLKPEDTAVYYCAAEKPVHYVRGVHYDYWGQGTQVTVSS', 'low polyreactivity'),
  ('QVQLVESGGGLVQAGGSLRLSCAASGRIISRYTMGWSRQAPGKEREWVAGISRSGDRTYYADSVKGRFTISRDNAKNTVYLQMNSLKPEDTAVYSCNAGYWRFIDSYDYWGQGTQVTVSS', 'high polyreactivity');
